# run description: Neurotoxicity against ip dosed Swiss albino Mus musculus (mouse) measured after 15 to 25 min by chimney test
# Type: toxicity, organism-based
# measurement conditions: in vivo
Measured TD50, listed per entry for reference.
Express it in mg/kg; write the number only.

Q. Dear colleague, please send me the reported TD50 for O=C1c2ccccc2C(=O)N1n1c(-c2cccs2)nc2ccc(I)cc2c1=O when you can.
A. 447

Q. Supply TD50 value. Item: Cc1ccc2nc(SCC(=O)NN3C(=O)c4c(Cl)c(Cl)c(Cl)c(Cl)c4C3=O)n(-c3ccccc3)c(=O)c2c1
A. 562

Reference for the values: ChEMBL document CHEMBL3044927
